- Species on record: Cavia porcellus
- TEST_DESCRIPTION: In vitro inhibition of electrically evoked contractions of the guinea pig ileum (GPI)
- Type: functional
The following molecules are listed with their measured pIC50 values.
Please treat pIC50 as minus the base-10 logarithm of the molar concentration.

• CC[C@H](C)[C@H](NC(=O)[C@H](CCCN=C(N)N)NC(=O)[C@H](CCCN=C(N)N)NC(=O)[C@H](CCN=C(N(C)C)N(C)C)NC(=O)[C@H](Cc1ccccc1)NC(=O)CNC(=O)[C@@H](CC(=O)O)NC(=O)[C@@H](N)Cc1ccc(O)cc1)C(=O)N[C@@H](CCCN=C(N)N)C(=O)N1CCC[C@H]1C(=O)N[C@@H](CCCCN)C(=O)N[C@@H](CC(C)C)C(=O)N[C@@H](CCCCN)C(N)=O = 9.74
• CC[C@H](C)[C@H](NC(=O)[C@H](CCCN=C(N)N)NC(=O)[C@H](CCCN=C(N)N)NC(=O)[C@H](CCCN=C(N(C)C)N(C)C)NC(=O)[C@H](Cc1ccccc1)NC(=O)CNC(=O)[C@@H](CC(=O)O)NC(=O)[C@@H](N)Cc1ccc(O)cc1)C(=O)N[C@@H](CCCN=C(N)N)C(=O)N1CCC[C@H]1C(=O)N[C@@H](CCCCN)C(=O)N[C@@H](CC(C)C)C(=O)N[C@@H](CCCCN)C(N)=O = 8.75

pIC50 recorded for this molecule, CC[C@H](C)[C@H](NC(=O)[C@H](CCCN=C(N)N)NC(=O)[C@H](CCCN=C(N)N)NC(=O)[C@@H]1CNC(=O)C[C@@H](NC(=O)[C@@H](N)Cc2ccc(O)cc2)C(=O)NCC(=O)N[C@@H](Cc2ccccc2)C(=O)N1)C(=O)N[C@@H](CCCN=C(N)N)C(=O)N1CCC[C@H]1C(=O)N[C@@H](CCCCN)C(=O)N[C@@H](CC(C)C)C(=O)N[C@@H](CCCCN)C(N)=O , is 9.80

* * *

- TESTED_ON: UniProtKB P41144
PARAMETER_MEASURED: pKi
Please treat pKi as minus the base-10 logarithm of the molar concentration.

- CC[C@H](C)[C@H](NC(=O)[C@H](CCCN=C(N)N)NC(=O)[C@H](CCCN=C(N)N)NC(=O)[C@H](CN=C(N(C)C)N(C)C)NC(=O)[C@H](Cc1ccccc1)NC(=O)CNC(=O)[C@@H](CC(=O)O)NC(=O)[C@@H](N)Cc1ccc(O)cc1)C(=O)N[C@@H](CCCN=C(N)N)C(=O)N1CCC[C@H]1C(=O)N[C@@H](CCCCN)C(=O)N[C@@H](CC(C)C)C(=O)N[C@@H](CCCCN)C(N)=O: 9.68

The compound CC[C@H](C)[C@H](NC(=O)[C@H](CCCN=C(N)N)NC(=O)[C@H](CCCN=C(N)N)NC(=O)[C@H](CC(C)C)NC(=O)[C@H](Cc1ccccc1)NC(=O)CNC(=O)[C@@H](CC(=O)O)NC(=O)[C@@H](N)Cc1ccc(O)cc1)C(=O)N[C@@H](CCCN=C(N)N)C(=O)N1CCC[C@H]1C(=O)N[C@@H](CCCCN)C(=O)N[C@@H](CC(C)C)C(=O)N[C@@H](CCCCN)C(N)=O , tested on UniProtKB P41144, showed pKi of 9.35

The compound CC[C@H](C)[C@H](NC(=O)[C@H](CCCN=C(N)N)NC(=O)[C@H](CCCN=C(N)N)NC(=O)[C@H](CCN=C(N(C)C)N(C)C)NC(=O)[C@H](Cc1ccccc1)NC(=O)CNC(=O)[C@@H](CC(=O)O)NC(=O)[C@@H](N)Cc1ccc(O)cc1)C(=O)N[C@@H](CCCN=C(N)N)C(=O)N1CCC[C@H]1C(=O)N[C@@H](CCCCN)C(=O)N[C@@H](CC(C)C)C(=O)N[C@@H](CCCCN)C(N)=O , tested on UniProtKB P41144, showed pKi of 9.85

The compound CC[C@H](C)[C@H](NC(=O)[C@H](CCCN=C(N)N)NC(=O)[C@H](CCCN=C(N)N)NC(=O)[C@H](CCCN=C(N(C)C)N(C)C)NC(=O)[C@H](Cc1ccccc1)NC(=O)CNC(=O)[C@@H](CC(=O)O)NC(=O)[C@@H](N)Cc1ccc(O)cc1)C(=O)N[C@@H](CCCN=C(N)N)C(=O)N1CCC[C@H]1C(=O)N[C@@H](CCCCN)C(=O)N[C@@H](CC(C)C)C(=O)N[C@@H](CCCCN)C(N)=O , tested on UniProtKB P41144, showed pKi of 9.44
